Give measured self-cleavage for each item. Keep answers brief.
B1: Hairpin Ribozyme (parent)
chain: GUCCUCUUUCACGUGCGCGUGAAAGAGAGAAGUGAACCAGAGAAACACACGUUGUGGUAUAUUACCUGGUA

# Variants of: B1
# method.notes: self-cleavage, relative activity (ratio to wild type); higher = more cleavage; co-transcriptional

// known answers, use as guide
C48G G54C    0.189
A11G G27A    0.353
U8G G17A    0.648
G25A C50U    0.315
G13C G56A    0.137

Field: self-cleavage. Fill in for each record below.
1. G17U U60A
2. A30C C66U
3. A11C U53C
4. C16U U62A

## Result
0.738
0.169
0.681
0.18

FYI, the data here is from the RNAGym collection of RNA variant scans (doi:10.7554/elife.80360).
